Assay: Selectivity index, CC50 for human HuH7 cells to IC50 for DENV2 D2Y98P
Format: toxicity
Settings: read-out: Ratio CC50/IC50
Recorded selectivity ratio determines the label; the label ranges are low range = under 10, mid range = from 10 up to 30, high range = 30 and over

These recorded examples may help you get a feel for the data.
CN(C)CCCCOC(=O)Nc1ccc(Cn2nc(-c3cccc(C(F)(F)F)c3)c3ccccc3c2=O)cc1 = high range
CC(c1ccc(NC(=O)OCCCCN(C)C)cc1)n1nc(-c2ccc(F)cc2)c2ccccc2c1=O (stereo not given) = mid range
CN(C)CCCCOC(=O)Nc1ccc(Cn2nc(-c3cccc(F)c3)c3ccccc3c2=O)cc1 = mid range
COc1ccc(-c2nn(Cc3ccc(NC(=O)OCCCCN(C)C)cc3)c(=O)c3ccccc23)cc1 = mid range
CN(C)CCCCOC(=O)Nc1ccc(Cn2nc(-c3ccccc3)c3ccccc3c2=O)cc1 = low range
COc1cccc(-c2nn(Cc3ccc(NC(=O)OCCCCN(C)C)cc3)c(=O)c3ccccc23)c1 = high range
CCCCOC(=O)Nc1ccc(Cn2nc(-c3ccc(F)cc3)c3ccccc3c2=O)cc1 = mid range
CN(C)CCCCOC(=O)Nc1ccccc1Cn1nc(-c2ccc(F)cc2)c2ccccc2c1=O = mid range
CN(C)CCCCOC(=O)Nc1ccc(Cn2nc(-c3cccnc3)c3ccccc3c2=O)cc1 = mid range
CN(C)CCCCNC(=O)Nc1ccc(Cn2nc(-c3ccc(F)cc3)c3ccccc3c2=O)cc1 = mid range

Please indicate the class for CN(C)CCCCOC(=O)Nc1cccc(Cn2nc(-c3ccc(F)cc3)c3ccccc3c2=O)c1 based on its selectivity ratio.
mid range

Please indicate the class for CN(C)CCCC(=O)Nc1ccc(Cn2nc(-c3ccc(F)cc3)c3ccccc3c2=O)cc1 based on its selectivity ratio.
high range

Please indicate the class for CN(C)CCCCOC(=O)Nc1ccc(Cn2nc(-c3ccccc3F)c3ccccc3c2=O)cc1 based on its selectivity ratio.
high range

Please indicate the class for CN(C)CCCCOC(=O)Nc1ccc(Cn2nc(-c3cncnc3)c3ccccc3c2=O)cc1 based on its selectivity ratio.
high range

###

Experiment: Cytotoxicity against human HuH7 cells assessed as reduction in cell viability after 48 hrs by MTT assay
Type: cell-based, Huh-7
Exam item: assign Condition met to entries whose CC50 at 48 h is below 40 µM and Condition not met to entries at or above 40 µM. Note that a value of exactly 40 µM receives Condition not met.

CN(C)CCCCOC(=O)Nc1ccc(Cn2nc(-c3ccccc3C#N)c3ccccc3c2=O)cc1 = Condition not met
Nc1ccc(Cn2nc(-c3ccc(F)cc3)c3ccccc3c2=O)cc1 = Condition not met
COc1ccccc1-c1nn(Cc2ccc(NC(=O)OCCCCN(C)C)cc2)c(=O)c2ccccc12 = Condition not met
CN(C)CCCCOC(=O)Nc1cccc(Cn2nc(-c3ccc(F)cc3)c3ccccc3c2=O)c1 = Condition met
COc1ccc(-c2nn(Cc3ccc(NC(=O)OCCCCN(C)C)cc3)c(=O)c3ccccc23)cc1 = Condition met

Lab note: CC50 at 48 h threshold 40 µM. Does this compound come in strictly under it? CN(C)CCCCOC(=O)Nc1ccc(-n2nc(-c3ccc(F)cc3)c3ccccc3c2=O)cc1
Condition met

Lab note: CC50 at 48 h threshold 40 µM. Does this compound come in strictly under it? CCCCOC(=O)Nc1ccc(Cn2nc(-c3ccc(F)cc3)c3ccccc3c2=O)cc1
Condition met

###

Test system: dengue virus type 2
Assay: Antiviral activity against DENV2 D2Y98P infected in human HuH7 cells assessed as inhibition of viral RNA replication incubated for 48 hrs by qRT-PCR method
Type: functional, organism-based
Conditions: Huh-7, 48 h
metric: IC50 (µM)
Output spec: scalar in µM, unitless text.

These recorded examples may help you get a feel for the data.
Nc1ccc(Cn2nc(-c3ccc(F)cc3)c3ccccc3c2=O)cc1 = 20
CN(C)CCCCOC(=O)Nc1ccc(Cn2nc(-c3ccncc3)c3ccccc3c2=O)cc1 = 22.9
CN(C)CCCCOC(=O)Nc1ccccc1Cn1nc(-c2ccc(F)cc2)c2ccccc2c1=O = 2.83
CN(C)CCCCOC(=O)Nc1ccc(Cn2nc(-c3ccccc3C(F)(F)F)c3ccccc3c2=O)cc1 = 1.99

Give the reported IC50 for this compound. CN(C)CCCCOC(=O)Nc1ccc(Cn2nc(-c3cncnc3)c3ccccc3c2=O)cc1
0.6

Give the reported IC50 for this compound. CN(C)CCCCOC(=O)Nc1cccc(Cn2nc(-c3ccc(F)cc3)c3ccccc3c2=O)c1
0.64

Give the reported IC50 for this compound. COc1ccccc1-c1nn(Cc2ccc(NC(=O)OCCCCN(C)C)cc2)c(=O)c2ccccc12
1.4

###

Experiment: Half life in CD-1 mouse at 10 mg/kg, po
Format: ADME, organism-based
Settings: in vivo
metric: half-life

Give the reported half-life for this molecule. CN(C)CCCCOC(=O)Nc1ccc(Cn2nc(-c3cccc(C(F)(F)F)c3)c3ccccc3c2=O)cc1
175 min

###

Experiment: AUClast in CD-1 mouse at 10 mg/kg, po
Type: ADME, organism-based
Design: dose 10 mg/kg, time 0 - last, route oral
Settings: in vivo
metric: AUC(0-t) (ng·h/mL)
Output spec: scalar in ng·h/mL, unitless text.

Give the reported AUC(0-t) for this compound. CN(C)CCCCOC(=O)Nc1ccc(Cn2nc(-c3cccc(C(F)(F)F)c3)c3ccccc3c2=O)cc1
883

###

Assay: Cmax in CD-1 mouse at 10 mg/kg, po
Format: ADME, organism-based
Design: dose 10 mg/kg, route oral
Conditions: in vivo
metric: Cmax (ng/mL)
Output spec: scalar in ng/mL, unitless text.

Give the reported Cmax for this molecule. CN(C)CCCCOC(=O)Nc1ccc(Cn2nc(-c3cccc(C(F)(F)F)c3)c3ccccc3c2=O)cc1
94.5

###

Catalogue of CC50 at 48 h readings, one per entry.
Test: Cytotoxicity against human HuH7 cells assessed as reduction in cell viability after 48 hrs by MTT assay
Assay type: cell-based, Huh-7
Output spec: scalar in µM, unitless text.

These recorded examples may help you get a feel for the data.
CN(C)CCCCNC(=O)Nc1ccc(Cn2nc(-c3ccc(F)cc3)c3ccccc3c2=O)cc1 = 46.6
CN(C)CCCCOC(=O)Nc1ccc(Cn2nc(-c3ccc(C(F)(F)F)cc3)c3ccccc3c2=O)cc1 = 3.36
COc1cccc(-c2nn(Cc3ccc(NC(=O)OCCCCN(C)C)cc3)c(=O)c3ccccc23)c1 = 17.6

Give the reported CC50 at 48 h for this molecule. CN(C)CCCCOC(=O)Nc1ccc(Cn2nc(-c3ccc(F)cc3)c3ccccc3c2=O)cc1
19

Give the reported CC50 at 48 h for this molecule. CN(C)CCCCOC(=O)Nc1ccc(Cn2nc(-c3ccccc3)c3ccccc3c2=O)cc1
16

###

Assay: Selectivity index, CC50 for human HuH7 cells to IC50 for DENV2 D2Y98P
Assay type: toxicity
Conditions: read-out: Ratio CC50/IC50
Given measured selectivity ratio, output class 1 if it is greater than or equal to 10 and class 0 if not.

These recorded examples may help you get a feel for the data.
CN(C)CCCCOC(=O)Nc1ccc(-n2nc(-c3ccc(F)cc3)c3ccccc3c2=O)cc1 = class 1
CN(C)CCCCOC(=O)Nc1ccc(Cn2nc(-c3ccccc3C(F)(F)F)c3ccccc3c2=O)cc1 = class 1
CN(C)CCCCOC(=O)Nc1ccc(Cn2nc(-c3ccccc3C#N)c3ccccc3c2=O)cc1 = class 1
CN(C)CCCCOC(=O)Nc1ccc(Cn2nc(-c3ccc(C(F)(F)F)cc3)c3ccccc3c2=O)cc1 = class 0
CN(C)CCCCOC(=O)Nc1ccc(Cn2nc(-c3cnn(C)c3)c3ccccc3c2=O)cc1 = class 0
CN(C)CCCCOC(=O)Nc1ccc(Cn2nc(-c3ccc(F)cc3)c3ccccc3c2=O)cc1 = class 1

# check: selectivity ratio of CN(C)CCCCOC(=O)Nc1ccc(Cn2nc(-c3ccncc3)c3ccccc3c2=O)cc1 is greater than or equal to 10
class 0

# check: selectivity ratio of CN(C)CCCCOC(=O)Nc1ccc(Cn2nc(-c3ccc(C#N)cc3)c3ccccc3c2=O)cc1 is greater than or equal to 10
class 1

# check: selectivity ratio of COc1ccccc1-c1nn(Cc2ccc(NC(=O)OCCCCN(C)C)cc2)c(=O)c2ccccc12 is greater than or equal to 10
class 1

###

Assay: Cytotoxicity against human HuH7 cells assessed as reduction in cell viability after 48 hrs by MTT assay
Type: cell-based, Huh-7
Catalogue of CC50 at 48 h readings, one per entry.
Output spec: scalar in µM, unitless text.

These recorded examples may help you get a feel for the data.
CN(C)CCCCOC(=O)Nc1ccc(Cn2nc(-c3cncnc3)c3ccccc3c2=O)cc1 = 65.3
CC(c1ccc(NC(=O)OCCCCN(C)C)cc1)n1nc(-c2ccc(F)cc2)c2ccccc2c1=O (centres undefined) = 15.2
CN(C)CCCCOC(=O)Nc1ccc(Cn2nc(-c3ccncc3)c3ccccc3c2=O)cc1 = 62.7

Moving on to the next molecule.
Give the reported CC50 at 48 h for this molecule. CN(C)CCCCOC(=O)Nc1ccc(Cn2nc(-c3ccc(C#N)cc3)c3ccccc3c2=O)cc1
37

Provenance of the data: ChEMBL document CHEMBL4251649
